test system: Hepatitis C virus; assay: Antiviral activity against HCV; format: functional, organism-based, Hepacivirus hominis
Recorded EC50 by entry
Just the number in nM, nothing appended.

COc1ccc2c(O[C@@H]3C[C@H]4C(=O)N[C@]5(C(=O)O)C[C@H]5/C=C\CCCCC[C@H](NC(=O)OC5CCCC5)C(=O)N4C3)cc(-c3csc(NC(C)C)n3)nc2c1 350

Now turn to the next molecule.
In: Determine from records and report EC50 for CC(C)(C)OC(=O)N[C@H]1CCCCC/C=C\[C@@H]2C[C@@]2(C(=O)NS(=O)(=O)C2CC2)NC(=O)[C@@H]2C[C@@H](OC(=O)N3Cc4cccc(F)c4C3)CN2C1=O
Out: 0.6

---

Recorded Ki by entry
test: Inhibition of HCV NS3 protease; set-up: species or system Hepacivirus hominis

Worked examples follow.
compound	Ki
C=CCCCS(=O)(=O)NC(=O)[C@H](CCC)NC(=O)[C@H](NC(=O)[C@@H](NC(=O)OC(C)(C)C)C(C)(C)C)c1ccc(Oc2cc(-c3ccccc3)nc3cc(OC)ccc23)c(C=C)c1	48 nM
COc1ccc2c(O[C@@H]3C[C@H]4C(=O)N[C@]5(C(=O)O)C[C@H]5/C=C\CCCCC[C@H](NC(=O)OC5CCCC5)C(=O)N4C3)cc(-c3csc(NC(C)C)n3)nc2c1 [CILUPREVIR]	40 nM

In: Determine from records and report Ki for C=CCCCS(=O)(=O)NC(=O)[C@H](CCC)NC(=O)[C@@H](NC(=O)[C@@H](NC(=O)OC(C)(C)C)C(C)(C)C)c1ccc(Oc2cc(-c3ccccc3)nc3cc(OC)ccc23)c(C=C)c1
Out: 63 nM

---

test: Inhibition of protease activity of full-length HCV genotype 1a NS3 protease by FRET assay
Recorded Ki by entry
Just the number in nM, nothing appended.

CCC[C@@H]1NC(=O)[C@@H](NC(=O)[C@@H](NC(=O)OC(C)(C)C)C(C)(C)C)c2ccc(Oc3cc(-c4ccccc4)nc4cc(OC)ccc34)c(c2)C/C=C/CS(=O)(=O)NC1=O 222

Now turn to the next compound.
In: Determine from records and report Ki for CCC[C@@H]1NC(=O)[C@H](NC(=O)[C@@H](NC(=O)OC(C)(C)C)C(C)(C)C)c2ccc(Oc3cc(-c4ccccc4)nc4cc(OC)ccc34)c(c2)/C=C/CCCCS(=O)(=O)NC1=O
Out: 710

---

system: Hepatitis C virus; assay: Antiviral activity against HCV 1b infected in human HuH7 cells assessed as inhibition of viral replication by luciferase assay; assay type: functional, organism-based, Hepacivirus hominis; conditions: genotype 1b, Huh-7
observable: EC50

In: Determine from records and report EC50 for CCC[C@@H]1NC(=O)[C@@H](NC(=O)[C@@H](NC(=O)OC(C)(C)C)C(C)(C)C)c2ccc(Oc3cc(-c4ccccc4)nc4cc(OC)ccc34)c(c2)/C=C/CCCS(=O)(=O)NC1=O
Out: 6 µM

---

Recorded pKi by entry
experiment: Inhibition of protease activity of full-length HCV genotype 1a NS3 protease by FRET assay
Lab note: report pKi as minus log10 of the concentration in molar units, number only.

Worked examples follow.
compound	endpoint_value
CCC[C@@H]1NC(=O)[C@@H](NC(=O)[C@@H](NC(=O)OC(C)(C)C)C(C)(C)C)c2ccc(Oc3cc(-c4ccccc4)nc4cc(OC)ccc34)c(c2)/C=C/CCCCS(=O)(=O)NC1=O	6.03
CCC[C@@H]1NC(=O)[C@@H](NC(=O)[C@@H](NC(=O)OC(C)(C)C)C(C)(C)C)c2ccc(Oc3cc(-c4ccccc4)nc4cc(OC)ccc34)c(c2)/C=C\CCCCS(=O)(=O)NC1=O	6.49

In: Determine from records and report pKi for CCC[C@@H]1NC(=O)[C@@H](NC(=O)[C@@H](NC(=O)OC(C)(C)C)C(C)(C)C)c2ccc(Oc3cc(-c4ccccc4)nc4cc(OC)ccc34)c(c2)CCCc2ccccc2S(=O)(=O)NC1=O
Out: 6.60

In: Determine from records and report pKi for CCC[C@@H]1NC(=O)[C@@H](NC(=O)[C@@H](NC(=O)OC(C)(C)C)C(C)(C)C)c2ccc(Oc3cc(-c4ccccc4)nc4cc(OC)ccc34)c(c2)/C=C\c2ccccc2S(=O)(=O)NC1=O
Out: 6.77

In: Determine from records and report pKi for CCC[C@@H]1NC(=O)[C@H](NC(=O)[C@@H](NC(=O)OC(C)(C)C)C(C)(C)C)c2ccc(Oc3cc(-c4ccccc4)nc4cc(OC)ccc34)c(c2)/C=C\CC2(CC2)S(=O)(=O)NC1=O
Out: 6.06

In: Determine from records and report pKi for CCC[C@@H]1NC(=O)[C@@H](NC(=O)[C@@H](NC(=O)OC(C)(C)C)C(C)(C)C)c2ccc(Oc3cc(-c4ccccc4)nc4cc(OC)ccc34)c(c2)/C=C\Cc2ccccc2S(=O)(=O)NC1=O
Out: 6.72

In: Determine from records and report pKi for CCC[C@@H]1NC(=O)[C@@H](NC(=O)[C@@H](NC(=O)OC(C)(C)C)C(C)(C)C)c2ccc(Oc3cc(-c4ccccc4)nc4cc(OC)ccc34)c(c2)/C=C\CCCS(=O)(=O)NC1=O
Out: 6.41

In: Determine from records and report pKi for CCC[C@@H]1NC(=O)[C@H](NC(=O)[C@@H](NC(=O)OC(C)(C)C)C(C)(C)C)c2ccc(Oc3cc(-c4ccccc4)nc4cc(OC)ccc34)c(c2)/C=C\CCCS(=O)(=O)NC1=O
Out: 6.12

In: Determine from records and report pKi for CCC[C@@H]1NC(=O)[C@@H](NC(=O)[C@@H](NC(=O)OC(C)(C)C)C(C)(C)C)c2ccc(Oc3cc(-c4ccccc4)nc4cc(OC)ccc34)c(c2)/C=C\CCS(=O)(=O)NC1=O
Out: 6.86

In: Determine from records and report pKi for CCC[C@@H]1NC(=O)[C@@H](NC(=O)[C@@H](NC(=O)OC(C)(C)C)C(C)(C)C)c2ccc(Oc3cc(-c4ccccc4)nc4cc(OC)ccc34)c(c2)C/C=C/CCS(=O)(=O)NC1=O (mixture of isomers)
Out: 6.33
